Test system: Plasmodium falciparum
Experimental details: GSK_TCMDC: Inhibition of Plasmodium falciparum 3D7 in whole red blood cells, using parasite LDH activity as an index of growth. Test compounds present at 2uM
Assay type: functional
Attribute: Inhibition
Answer with a number only, understood to be in %.

Use these answered entries as a reference point.
> print(dat)
                                   molecule  measure.name  reported.value
1  CC(C)OCCCNC(=O)c1nc(-c2cccc(C(F)(F)F)c2)sc1C(C)C    Inhibition              94
2  COc1cc(C(F)(F)F)cc2[nH]c(CNCCCNc3nc4ccccc4[nH]3)cc12    Inhibition             100

What is its Inhibition for Plasmodium falciparum? Entry: `CCn1ccc2c(N3CCCCS3(=O)=O)cc(C(=O)N[C@@H](Cc3ccccc3)[C@H](O)CNC(C)(C)CCCC(C)C)cc21`
96

Cool, now Cc1cccc(C)c1N1CCN(C2CCC(NC(=O)/C=C/c3ccccc3)CC2)CC1 (centres undefined)
83
